B1: tRNA (parent)
chain: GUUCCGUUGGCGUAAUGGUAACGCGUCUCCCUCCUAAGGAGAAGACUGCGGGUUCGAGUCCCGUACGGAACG

# Variants of: B1
# experiment: yeast fitness relative to wild type (ratio to wild type); higher = fitter; tRNA-Arg(CCU), competitive growth, 37 C, YPD
Fewer inactive variants are shown than the library holds.
property_measured: yeast fitness
Reply briefly: the number, and no unit.

residue_codes: GUUCCGUUGGCGUUAUGCUAACGCGUCUCCCUCCUAAGGAGAAGACUGCGGGUUCGAGUCCCGUACGGAACG [A14U G18C]
numeric_readout: 0.583

Q. Tell us which yeast fitness value is on record for GUUCUGUUGGCGUAAUGGUAACGUGUCUCCCUCCUAAGGAGAAGACUGCGGGUUUGAGUCCCGUACGGAACG [C5U C24U C55U]
A. 0.711

Q. Tell us which yeast fitness value is on record for GUUUCGUUGGCGUAAUGGUAACGGGUCUCGUUCCAUAGGAGAAAACUGCGGGUUCGAGUCCCCUACGGAACG [C4U C24G C30G C31U U35A A36U G44A G63C]
A. 0.654

Q. Tell us which yeast fitness value is on record for GUUCCGUCGGCGUAAUGGUAACGCGUCUCCCUCCUACGGAGAAGACUGCGGGUUCGAGUCCCGUACGGAACG [U8C A37C]
A. 0.892

Data credit: the RNAGym collection of RNA variant scans (doi:10.1126/science.aae0568)
